# tested target: T1, human SIRPβ1 isoform 1 on cells (human, UniProt O00241 30-398)
# T1 construct: On CHO cells (low level), on BWZ/BW5147.G.1.4 cells (reporter cells co-express human DAP12) or on primary human myeloid cells; also called huSIRPβ1; BWZ-huSIRPβ1
# T1 sequence (O00241 30-398): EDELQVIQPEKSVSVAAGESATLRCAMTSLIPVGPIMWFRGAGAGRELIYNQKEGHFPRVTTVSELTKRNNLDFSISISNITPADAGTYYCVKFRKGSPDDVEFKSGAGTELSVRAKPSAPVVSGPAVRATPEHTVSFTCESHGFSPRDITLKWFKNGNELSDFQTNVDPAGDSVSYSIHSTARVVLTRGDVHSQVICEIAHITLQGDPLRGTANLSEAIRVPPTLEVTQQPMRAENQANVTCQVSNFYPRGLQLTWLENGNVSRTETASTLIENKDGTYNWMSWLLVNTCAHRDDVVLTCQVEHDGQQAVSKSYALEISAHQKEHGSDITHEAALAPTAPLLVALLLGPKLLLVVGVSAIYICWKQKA
# method summary: cell binding titration; target not given
value kind: EC50 (nM)
The answer is to be given in nM; state only the numeric part.

SB-40-21 (antibody, V domains shown, IgG) VH: QVQLVQSGAEVKKPGASVKVSCKASGYTFTSYYMVWVRQAPGQGLEWMGIINPSSGDTNYAQKFQGRVTMTRDTSISTAYMELSRLRSDDTAVYYCARDTGEYSYSPHGMDVWGQGTTVTVSS VL: EIVLTQSPATLSLSPGERATLSCRASQSVSSYLAWYQQKPGQAPRLLIYDSSNRATGIPARFSGSGSGTDFTLTISSLEPEDFAVYYCQQRDEHPPWTFGGGTKVEIK
0.715
SB-2 (antibody, V domains shown, IgG; also called SB-2 (p)) VH: QVQLVESGGGVVQPGRSLRLSCAASGFTFSSYGMNWVRQAPGKGLEWVAVIWYDGSNKYYADSVKGRFTISRDNSKNTLYLQMNSLRAEDTAVYYCARDQTAAAAIWGMDVWGQGTTVTVSS VL: EIVLTQSPGTLSLSPGERATLSCRASQSVSSSYLAWYQQKPGQAPRLLIYGASSRATGIPDRFSGSGSGTDFTLTISRLEPEDFAVYYCQQSSSHPFTFGGGTKVEIK
0.235

Attention now turns to another entry.
Prompt: # input binder: SB-40-20 (antibody, V domains shown, IgG) VH: QVQLVQSGAEVKKPGASVKVSCKASGYTFTSFYISWVRQAPGQGLEWMGIINPSSGHTNYAQKLQGRVTMTTDTSTSTAYMELSSLRSEDTAVYYCARDTGEYSYSPHGMDVWGQGTTVTVSS VL: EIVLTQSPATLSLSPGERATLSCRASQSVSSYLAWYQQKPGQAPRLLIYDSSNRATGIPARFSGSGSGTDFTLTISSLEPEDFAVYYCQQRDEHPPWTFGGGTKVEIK ; wanted: its EC50
Completion: 0.405
